Tested on: SW-620 colon
Assay: NCI-60 one-dose screen, 48 h
Settings: 10 µM unless noted
Experimental: Growth inhibition of the SW-620 human tumor cell line is measured as a screen for anti-cancer activity. Cells are grown in 96 well plates and exposed to the test compound for 48 hours. Compounds are tested at a single concentration, which is 10^-5 M for most compounds. The reported endpoint is percent growth (GI% or GIPRCNT), where numbers from 0 - 100% represent growth inhibition, and numbers from -100% - 0 represent cell death. For example, a value of 40 represents 60% growth inhibition. […]
About 83,000 compounds went through this panel and 20% of them were active in at least one assay; those are over-represented in the sample as a whole. Activity calls are given as the source filed them. How the source made its calls: active means growth percent below 10; inactive means the rest.
# output must be one of true (1) for active, false (0) for inactive

Worked set:
COc1ccc(/C=C/C(=O)c2cc(S(N)(=O)=O)c(OC)cc2OC)cc1 ... false (0)
CNC(=O)c1cc(-c2ccc(NS(=O)(=O)c3ccc(C)cc3)cc2)nc2cccnc12 ... false (0)
Cc1nn(-c2ccccc2)c2ncnc(N/N=C/c3ccccc3O)c12 ... false (0)
O=C(O)c1ccc(-n2cc(CNc3cccc(Cl)c3)c(-c3ccc(F)cc3)n2)cc1 ... false (0)
NC(=O)c1cccc(-n2ccc3cc(NC(=O)Nc4ccc(N5CCOCC5)c(C(F)(F)F)c4)ccc32)n1 ... true (1)

Outcome? C=C(C)[C@@H]1CC[C@]2(COP(=O)(OCC)OCC)CC[C@]3(C)[C@H](CC[C@@H]4[C@@]5(C)CCCNC(C)(C)[C@@H]5CC[C@]43C)[C@@H]12 false (0)
